# Target Desc: T1, HLA-A2/E6(29-38) tetramer (human; HPV 16)
# T1 construct: also called E6(29-38) peptide-MHC tetramer; E6 tet
# Experimental Details: flow cytometry, tetramer + anti-CD8; transfected mix of CD8- and CD8+ Jurkat-derived cells;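 also: CD4+ and CD4+/CD8+ cell mixtures transiently given TCR plasmids, analysed 48 h post-transfection by flow cytometry with E6(29-38)–HLA-A*02:01 tetramer plus anti-CD8 antibody co-stain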
Mark t for % cells E6 tet+/CD8- quadrant under 20%, f if at or over.

Take a look at these entries with their results.
TCR 24 (codon-optimized, cysteine-modified) (TCR, V domains shown) V domain 1: AQKITQTQPGMFVQEKEAVTLDCTYDTSDQSYGLFWYKQPSSGEMIFLIYQGSYDEQNATEGRYSLNFQKARKSANLVISASQLGDSAMYFCAMREGRGDSWGKLQFGAGTQVVVTP V domain 2: DVKVTQSSRYLVKRTGEKVFLECVQDMDHENMFWYRQDPGLGLRLIYFSYDVKMKEKGDIPEGYSVSREKKERFSLILESASTNQTSMYLCASSPFGRGSYEQYFGPGTRLTVTE	f
TCR 29 (codon-optimized, cysteine-modified) (TCR, V domains shown) V domain 1: AQKITQTQPGMFVQEKEAVTLDCTYDTSDQSYGLFWYKQPSSGEMIFLIYQGSYDEQNATEGRYSLNFQKARKSANLVISASQLGDSAMYFCAMRLNTGTASKLTFGTGTRLQVTL V domain 2: DGGITQSPKYLFRKEGQNVTLSCEQNLNHDAMYWYRQDPGQGLRLIYYSQIVNDFQKGDIAEGYSVSREKKESFPLTVTSAQKNPTAFYLCASSPWGRATNEQFFGPGTRLTVLE	f
TCR 27 (codon-optimized, cysteine-modified) (TCR, V domains shown) V domain 1: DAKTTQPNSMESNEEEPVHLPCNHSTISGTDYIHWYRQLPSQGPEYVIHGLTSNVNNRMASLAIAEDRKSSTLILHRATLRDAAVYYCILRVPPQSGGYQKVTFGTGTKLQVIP V domain 2: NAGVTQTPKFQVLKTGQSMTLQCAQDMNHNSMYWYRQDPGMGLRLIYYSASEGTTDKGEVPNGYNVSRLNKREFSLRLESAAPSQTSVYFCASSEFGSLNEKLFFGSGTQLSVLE	t
TCR 18 (codon-optimized, cysteine-modified) (TCR, V domains shown) V domain 1: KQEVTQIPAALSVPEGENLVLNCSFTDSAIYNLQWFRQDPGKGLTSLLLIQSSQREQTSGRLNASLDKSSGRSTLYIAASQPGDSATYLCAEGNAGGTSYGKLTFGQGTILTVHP V domain 2: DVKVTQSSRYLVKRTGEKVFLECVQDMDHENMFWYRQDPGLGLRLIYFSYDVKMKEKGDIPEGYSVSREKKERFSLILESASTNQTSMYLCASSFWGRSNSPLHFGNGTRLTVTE	t

Exercise: Please check: % cells E6 tet+/CD8- quadrant for TCR 26 (codon-optimized, cysteine-modified) (TCR, V domains shown) V domain 1: AQKITQTQPGMFVQEKEAVTLDCTYDTSDQSYGLFWYKQPSSGEMIFLIYQGSYDEQNATEGRYSLNFQKARKSANLVISASQLGDSAMYFCAMRDARNNDMRFGAGTRLTVKP V domain 2: NAGVTQTPKFRVLKTGQSMTLLCAQDMNHEYMYWYRQDPGMGLRLIHYSVGEGTTAKGEVPDGYNVSRLKKQNFLLGLESAAPSQTSVYFCASSYYASGRNYEQYFGPGTRLTVTE , strictly under 20% or not?
Solution: f

Exercise: Determine if TCR 25 (codon-optimized, cysteine-modified) (TCR, V domains shown) V domain 1: AQKITQTQPGMFVQEKEAVTLDCTYDTSDQSYGLFWYKQPSSGEMIFLIYQGSYDEQNATEGRYSLNFQKARKSANLVISASQLGDSAMYFCAMREGSLTGGGNKLTFGTGTQLKVEL V domain 2: DVKVTQSSRYLVKRTGEKVFLECVQDMDHENMFWYRQDPGLGLRLIYFSYDVKMKEKGDIPEGYSVSREKKERFSLILESASTNQTSMYLCASSLWGQSNQPQHFGDGTRLSILE shows % cells E6 tet+/CD8- quadrant strictly lower than 20%.
Solution: t

Exercise: Dear colleague, could you confirm whether % cells E6 tet+/CD8- quadrant of TCR 16 (codon-optimized, cysteine-modified) (TCR, V domains shown) V domain 1: KQEVTQIPAALSVPEGENLVLNCSFTDSAIYNLQWFRQDPGKGLTSLLLIQSSQREQTSGRLNASLDKSSGRSTLYIAASQPGDSATYLCAVRPANNNDMRFGAGTRLTVKP V domain 2: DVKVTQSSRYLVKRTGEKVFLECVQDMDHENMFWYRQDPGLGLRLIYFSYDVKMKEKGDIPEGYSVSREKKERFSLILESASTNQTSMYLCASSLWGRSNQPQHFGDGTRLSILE falls below 20%? Thanks.
Solution: f

Exercise: A record lists TCR 19 (codon-optimized, cysteine-modified) (TCR, V domains shown) V domain 1: AQKITQTQPGMFVQEKEAVTLDCTYDTSDQSYGLFWYKQPSSGEMIFLIYQGSYDEQNATEGRYSLNFQKARKSANLVISASQLGDSAMYFCAMRENTGTASKLTFGTGTRLQVTL V domain 2: DVKVTQSSRYLVKRTGEKVFLECVQDMDHENMFWYRQDPGLGLRLIYFSYDVKMKEKGDIPEGYSVSREKKERFSLILESASTNQTSMYLCASSSWGQSTGEQYFGPGTRLTVTE . Is its % cells E6 tet+/CD8- quadrant below 20%?
Solution: f

Exercise: Record TCR 28 (codon-optimized, cysteine-modified) (TCR, V domains shown) V domain 1: RKEVEQDPGPFNVPEGATVAFNCTYSNSASQSFFWYRQDCRKEPKLLMSVYSSGNEDGRFTAQLNRASQYISLLIRDSKLSDSATYLCVVRGGGTSYGKLTFGQGTILTVHP V domain 2: DVKVTQSSRYLVKRTGEKVFLECVQDMDHENMFWYRQDPGLGLRLIYFSYDVKMKEKGDIPEGYSVSREKKERFSLILESASTNQTSMYLCASSLWGRSSGNTIYFGEGSWLTVVE : is its % cells E6 tet+/CD8- quadrant strictly below 20%?
Solution: t

Exercise: Quick check: % cells E6 tet+/CD8- quadrant of TCR 23 (codon-optimized, cysteine-modified) (TCR, V domains shown) V domain 1: AQKITQTQPGMFVQEKEAVTLDCTYDTSDQSYGLFWYKQPSSGEMIFLIYQGSYDEQNATEGRYSLNFQKARKSANLVISASQLGDSAMYFCAMSPPGGSARQLTFGSGTQLTVLP V domain 2: DVKVTQSSRYLVKRTGEKVFLECVQDMDHENMFWYRQDPGLGLRLIYFSYDVKMKEKGDIPEGYSVSREKKERFSLILESASTNQTSMYLCASSPWGQSNQPQHFGDGTRLSILE under 20%?
Solution: f
